Cited source for all entries: ChEMBL document CHEMBL1201861

# System: A3-KAW;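 further: growth inhibition of human A3-KAW cells, read out with a cell viability assay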
# assayProtocol: cells
# Assay type: functional, cell-based, Homo sapiens
# recordedConditions: Homo sapiens, A3-KAW
# Description: SANGER: Inhibition of human A3-KAW cell growth in a cell viability assay.

chemSmiles	valuePrefix	IC50 (nM)
CC1(C)CNc2cc(NC(=O)c3cccnc3NCc3ccncc3)ccc21	>	2000
Cc1cc([N+](=O)[O-])ccc1NS(=O)(=O)c1cc(Cl)ccc1Cl	=	8780
CC(=O)O[C@H]1C(=O)[C@@]2(C)[C@H]([C@H](OC(=O)c3ccccc3)[C@]3(O)C[C@H](OC(=O)[C@H](O)[C@@H](NC(=O)c4ccccc4)c4ccccc4)C(C)=C1C3(C)C)[C@]1(OC(C)=O)CO[C@@H]1C[C@@H]2O	=	73.5

* * *

# System: HCC1419;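 further: growth inhibition of human HCC1419 cells, read out as cell viability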
# assayProtocol: cells
# Format: functional, cell-based, Homo sapiens
# recordedConditions: Homo sapiens, HCC1419
# Description: SANGER: Inhibition of human HCC1419 cell growth in a cell viability assay.
Structures can show the parent of a compound that is named as a salt.
experimentalEndpoint: IC50 (nM)

compound	valuePrefix	assayResult
COC1=CC(c2cc3ccccc3[nH]2)=N/C1=C\c1[nH]c(C)cc1C [OBATOCLAX MESYLATE]	=	1830
CCC/C=C/C=C/C(=O)O[C@H]1/C(=C/C(=O)OC)C[C@H]2C[C@H]([C@@H](C)O)OC(=O)C[C@H](O)C[C@@H]3C[C@H](OC(C)=O)C(C)(C)[C@](O)(C[C@@H]4C/C(=C/C(=O)OC)C[C@H](/C=C/C(C)(C)[C@]1(O)O2)O4)O3	>	8
Oc1ccc2ccccc2c1SSc1c(O)ccc2ccccc12	>	32000
CC(C)c1ccccc1Cc1cc(C(=O)Nc2ccc(S(=O)(=O)c3ccccc3C(C)(C)C)cc2)c(O)c(O)c1O	=	918
O=C(O)c1ccc(-c2c[nH]c3ncc(-c4ccccc4)cc23)cc1C1CCCC1	>	16000

* * *

# Test system: NCI-H441
# assayProtocol: cells
# Type: functional, cell-based, Homo sapiens
# recordedConditions: nci-h441
# Description: SANGER: Inhibition of human NCI-H441 cell growth in a cell viability assay.
experimentalEndpoint: IC50

sequenceText	measurementTarget	assayResult
BLEOMYCIN	NCI-H441	9.05 µM

* * *

Property: IC50; scope: individual molecules
# System: ECC10;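 further: growth inhibition of ECC10 cells, read out by a cell viability assay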
# assayProtocol: cells
# Type: functional, cell-based, Homo sapiens
# recordedConditions: Homo sapiens, ECC10
# Description: SANGER: Inhibition of human ECC10 cell growth in a cell viability assay.

molecule	IC50
COc1cc2c(Nc3ccc(NC(=O)c4ccccc4)cc3)ncnc2cc1OCCCN1CCOCC1	1.63 µM
Cn1cnc2c(F)c(Nc3ccc(Br)cc3Cl)c(C(=O)NOCCO)cc21 [SELUMETINIB]	> 4 µM
CO[C@H]1C[C@@H]2CC[C@@H](C)[C@@](O)(O2)C(=O)C(=O)N2CCCC[C@H]2C(=O)O[C@H]([C@H](C)C[C@@H]2CC[C@@H](OC(=O)C(C)(CO)CO)[C@H](OC)C2)CC(=O)[C@H](C)/C=C(\C)[C@@H](O)[C@@H](OC)C(=O)[C@H](C)C[C@H](C)/C=C/C=C/C=C/1C [TEMSIROLIMUS]	> 0.2 µM
CC1(C)CNc2cc(NC(=O)c3cccnc3NCc3ccncc3)ccc21 [MOTESANIB]	> 2 µM

* * *

The entries below are paired with their reported IC50.
# System: NCI-H1651;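 further: Read-out is a cell viability assay, with IC50 expressing inhibition of NCI-H1651 cell growth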
# assayProtocol: cells
# Assay type: functional, cell-based, Homo sapiens
# recordedConditions: Homo sapiens, NCI-H1651
# Description: SANGER: Inhibition of human NCI-H1651 cell growth in a cell viability assay.

compound	IC50
CCC/C=C/C=C/C(=O)O[C@H]1/C(=C/C(=O)OC)C[C@H]2C[C@H]([C@@H](C)O)OC(=O)C[C@H](O)C[C@@H]3C[C@H](OC(C)=O)C(C)(C)[C@](O)(C[C@@H]4C/C(=C/C(=O)OC)C[C@H](/C=C/C(C)(C)[C@]1(O)O2)O4)O3 [BRYOSTATIN 1]	> 0.008 µM
Cn1cnc2c(F)c(Nc3ccc(Br)cc3Cl)c(C(=O)NOCCO)cc21 [SELUMETINIB]	> 4 µM
COc1cccc2c1C(=O)c1c(O)c3c(c(O)c1C2=O)C[C@@](O)(C(=O)CO)C[C@@H]3O[C@H]1C[C@H](N)[C@H](O)[C@H](C)O1 [DOXORUBICIN]	0.0118 µM
CC1(C)CNc2cc(NC(=O)c3cccnc3NCc3ccncc3)ccc21 [MOTESANIB]	> 2 µM
CC(C)CCN1c2nc(Nc3cc(F)c(O)c(F)c3)ncc2N(C)C(=O)C1C (stereo not drawn)	> 5 µM
CS(=O)(=O)c1ccc(C(=O)Nc2ccc(Cl)c(-c3ccccn3)c2)c(Cl)c1 [VISMODEGIB]	> 10 µM
CN(C)C(=N)NC(=N)N [METFORMIN]	18500 µM
Oc1ccc2ccccc2c1SSc1c(O)ccc2ccccc12	> 32 µM

* * *

# Tested on: U-266
# assayProtocol: cells
# Format: functional, cell-based, Homo sapiens
# recordedConditions: Homo sapiens, U-266
# Description: SANGER: Inhibition of human U-266 cell growth in a cell viability assay.
Counter-ions that a name gives are not always drawn.

molecule	measurementTarget	valuePrefix	IC50 (nM)
COc1cc(N2CCN(C)CC2)ccc1Nc1ncc2c(n1)N(C)c1ccccc1C(=O)N2C	U-266	>	8000
CC1(C)CNc2cc(NC(=O)c3cccnc3NCc3ccncc3)ccc21	U-266	>	2000
COc1cc(-c2nn([C@H]3CC[C@H](N4CCN(C(C)=O)CC4)CC3)c3ncnc(N)c23)ccc1NC(=O)c1cc2ccccc2n1C	U-266	>	5120
COC1=CC(c2cc3ccccc3[nH]2)=N/C1=C\c1[nH]c(C)cc1C [OBATOCLAX MESYLATE]	U-266	=	311
COc1cccc2c1C(=O)c1c(O)c3c(c(O)c1C2=O)C[C@@](O)(C(=O)CO)C[C@@H]3O[C@H]1C[C@H](N)[C@H](O)[C@H](C)O1	U-266	=	451
Cn1cnc2c(F)c(Nc3ccc(Br)cc3Cl)c(C(=O)NOCCO)cc21	U-266	=	488
CC(C)CCN1c2nc(Nc3cc(F)c(O)c(F)c3)ncc2N(C)C(=O)C1C (stereo not drawn)	U-266	=	4610
COc1cc2ncn(-c3cc(OCc4ccccc4C(F)(F)F)c(C(N)=O)s3)c2cc1OC [GW843682X]	U-266	=	69.8

* * *

# System: HN
# assayProtocol: cells
# Type: functional, cell-based, Homo sapiens
# recordedConditions: Homo sapiens, HN
# Description: SANGER: Inhibition of human HN cell growth in a cell viability assay.
IC50 values for the compounds below.

compound	IC50
CC1(C)CNc2cc(NC(=O)c3cccnc3NCc3ccncc3)ccc21	> 2000 nM
CC(C)CCN1c2nc(Nc3cc(F)c(O)c(F)c3)ncc2N(C)C(=O)C1C (stereo not drawn)	1610 nM
O=C(O)c1ccc(-c2c[nH]c3ncc(-c4ccccc4)cc23)cc1C1CCCC1	> 16000 nM
Nc1ccn([C@@H]2O[C@H](CO)[C@@H](O)C2(F)F)c(=O)n1	54.1 nM
Cc1cn(-c2cc(NC(=O)c3ccc(C)c(Nc4nccc(-c5cccnc5)n4)c3)cc(C(F)(F)F)c2)cn1	> 2000 nM
CC(C)c1ccccc1Cc1cc(C(=O)Nc2ccc(S(=O)(=O)c3ccccc3C(C)(C)C)cc2)c(O)c(O)c1O	231 nM
N#Cc1c(O)c2c(-c3ccc(-c4ccccc4O)cc3)csc2[nH]c1=O	> 1020 nM
CO[C@H]1C[C@@H]2CC[C@@H](C)[C@@](O)(O2)C(=O)C(=O)N2CCCC[C@H]2C(=O)O[C@H]([C@H](C)C[C@@H]2CC[C@@H](OC(=O)C(C)(CO)CO)[C@H](OC)C2)CC(=O)[C@H](C)/C=C(\C)[C@@H](O)[C@@H](OC)C(=O)[C@H](C)C[C@H](C)/C=C/C=C/C=C/1C	> 200 nM

* * *

The following compounds are shown together with reported pIC50 values.
# Tested on: COR-L105;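 further: cell growth inhibition determined with a viability assay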
# assayProtocol: cells
# Assay type: functional, cell-based, Homo sapiens
# recordedConditions: Homo sapiens, COR-L105
# Description: SANGER: Inhibition of human COR-L105 cell growth in a cell viability assay.
pIC50: −log10 of the molar value.

compound	valuePrefix	pIC50
Cc1cn(-c2cc(NC(=O)c3ccc(C)c(Nc4nccc(-c5cccnc5)n4)c3)cc(C(F)(F)F)c2)cn1 [NILOTINIB]	<	5.70
Nc1ccn([C@@H]2O[C@H](CO)[C@@H](O)C2(F)F)c(=O)n1 [GEMCITABINE]	=	7.53
CS(=O)(=O)c1ccc(C(=O)Nc2ccc(Cl)c(-c3ccccn3)c2)c(Cl)c1 [VISMODEGIB]	<	5.00
Oc1ccc2ccccc2c1SSc1c(O)ccc2ccccc12	=	5.13

* * *

# Test system: SNU-475
# assayProtocol: cells
# Assay type: functional, cell-based, Homo sapiens
# recordedConditions: Homo sapiens, SNU-475
# Description: SANGER: Inhibition of human SNU-475 cell growth in a cell viability assay.

chemSmiles	IC50
Oc1ccc2ccccc2c1SSc1c(O)ccc2ccccc12	> 32 µM

* * *

# Test system: HuP-T4;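 further: cell viability assay measuring how much HuP-T4 cell growth is inhibited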
# assayProtocol: cells
# Format: functional, cell-based, Homo sapiens
# recordedConditions: Homo sapiens, HuP-T4
# Description: SANGER: Inhibition of human HuP-T4 cell growth in a cell viability assay.

molecule	units	valuePrefix	IC50
Oc1ccc2ccccc2c1SSc1c(O)ccc2ccccc12	nM	>	32000
CC(C)CCN1c2nc(Nc3cc(F)c(O)c(F)c3)ncc2N(C)C(=O)C1C (stereo not given)	nM	>	5000
Cc1cc([N+](=O)[O-])ccc1NS(=O)(=O)c1cc(Cl)ccc1Cl	nM	=	1680
COc1cc2c(Nc3ccc(NC(=O)c4ccccc4)cc3)ncnc2cc1OCCCN1CCOCC1	nM	>	4000
CC(C)c1ccccc1Cc1cc(C(=O)Nc2ccc(S(=O)(=O)c3ccccc3C(C)(C)C)cc2)c(O)c(O)c1O	nM	=	543
